# Tested on: UACC-62 melanoma
# experiment_notes: NCI tumour cell line growth inhibition, 48 h; in the data active = GI50 below about 0.43 µM; inactive = the rest
// one of 1 (yes) (active), 0 (no) (inactive), no free text

Previously resolved entries follow.
- Cn1cc(C2=C(c3cn(C)c4ccc(N)cc34)C(=O)NC2=O)c2ccccc21: 0 (no)
- CNC(=O)Nc1ccc(-c2nc(N3CCOCC3)nc3c2cnn3C2CCOCC2)cc1: 1 (yes)
- S=C(N/N=C/c1cc(Cl)cc(Cl)c1)NC12CC3CC(CC(C3)C1)C2: 0 (no)
- CSc1ccc(/C=C2\CNC/C(=C\c3ccc(SC)cc3)C2=O)cc1: 0 (no)

Now for another entry.
Prompt: Test call for this compound, please: `CS(=O)(=O)c1ccc(Cl)c([N+](=O)[O-])c1`
Response: 0 (no)
